biological target: PI3Kα (p110[H1047R]/p85) kinase (Homo sapiens, UniProt P42336, H1047R); assay: PI3Kα (p110[H1047R]/p85) kinase ADP-Glo Assay; conditions: 25 uM ATP
Sequence (P42336 whole entry H1047R): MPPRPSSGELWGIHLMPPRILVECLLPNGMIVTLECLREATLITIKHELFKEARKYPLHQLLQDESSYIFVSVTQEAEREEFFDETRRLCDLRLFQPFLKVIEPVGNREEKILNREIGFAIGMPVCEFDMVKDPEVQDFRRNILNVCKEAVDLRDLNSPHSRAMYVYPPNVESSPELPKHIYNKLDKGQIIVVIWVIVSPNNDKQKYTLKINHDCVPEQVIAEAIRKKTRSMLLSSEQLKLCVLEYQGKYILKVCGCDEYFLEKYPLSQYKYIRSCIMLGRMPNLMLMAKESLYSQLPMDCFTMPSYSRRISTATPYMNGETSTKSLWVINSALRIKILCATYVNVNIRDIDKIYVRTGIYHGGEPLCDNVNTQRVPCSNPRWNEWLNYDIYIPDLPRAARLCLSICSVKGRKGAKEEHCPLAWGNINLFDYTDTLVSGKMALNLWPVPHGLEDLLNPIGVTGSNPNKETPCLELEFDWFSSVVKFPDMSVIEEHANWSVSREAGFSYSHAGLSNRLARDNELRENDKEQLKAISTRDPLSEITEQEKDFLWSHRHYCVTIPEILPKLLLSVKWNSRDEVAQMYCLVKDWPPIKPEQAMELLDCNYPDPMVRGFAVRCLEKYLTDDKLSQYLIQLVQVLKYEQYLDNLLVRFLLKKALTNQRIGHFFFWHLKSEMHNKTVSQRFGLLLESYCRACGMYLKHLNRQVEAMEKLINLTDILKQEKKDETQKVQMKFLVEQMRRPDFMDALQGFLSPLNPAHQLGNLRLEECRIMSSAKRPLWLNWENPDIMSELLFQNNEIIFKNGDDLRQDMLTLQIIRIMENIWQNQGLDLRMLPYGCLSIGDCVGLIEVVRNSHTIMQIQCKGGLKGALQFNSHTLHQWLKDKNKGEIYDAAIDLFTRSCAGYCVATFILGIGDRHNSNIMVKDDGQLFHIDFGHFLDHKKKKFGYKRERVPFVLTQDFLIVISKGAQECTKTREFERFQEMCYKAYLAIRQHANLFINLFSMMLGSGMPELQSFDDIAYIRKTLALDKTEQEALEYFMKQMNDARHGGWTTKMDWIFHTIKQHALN
Sequence (P27986 whole entry partner): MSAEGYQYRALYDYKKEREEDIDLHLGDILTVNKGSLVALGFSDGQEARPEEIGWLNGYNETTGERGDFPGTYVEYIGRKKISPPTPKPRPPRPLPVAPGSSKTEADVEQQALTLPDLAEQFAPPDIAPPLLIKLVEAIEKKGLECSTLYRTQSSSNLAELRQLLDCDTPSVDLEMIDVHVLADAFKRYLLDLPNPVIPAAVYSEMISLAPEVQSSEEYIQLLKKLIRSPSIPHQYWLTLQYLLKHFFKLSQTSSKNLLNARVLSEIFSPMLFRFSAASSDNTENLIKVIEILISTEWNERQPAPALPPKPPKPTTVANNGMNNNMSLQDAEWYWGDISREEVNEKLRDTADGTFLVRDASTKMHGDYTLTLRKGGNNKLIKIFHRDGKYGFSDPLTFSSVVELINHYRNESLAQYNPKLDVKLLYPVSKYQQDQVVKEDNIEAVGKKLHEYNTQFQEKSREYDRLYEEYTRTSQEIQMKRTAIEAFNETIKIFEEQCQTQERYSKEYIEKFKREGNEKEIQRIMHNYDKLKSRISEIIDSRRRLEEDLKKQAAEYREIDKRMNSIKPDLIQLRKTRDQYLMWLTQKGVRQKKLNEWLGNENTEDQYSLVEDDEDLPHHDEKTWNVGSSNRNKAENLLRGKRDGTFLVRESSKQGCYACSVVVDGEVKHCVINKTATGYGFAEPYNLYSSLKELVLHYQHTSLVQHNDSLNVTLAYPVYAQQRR
pIC50: −log10 of the molar value.
Label scheme for pIC50: lower than 6 is 0 (no), 6 and above is 1 (yes).

{"molecule": "Cc1cc(C(C)Nc2ccccc2S(C)(=O)=O)c2cc(-c3ccccc3)n(C)c(=O)c2c1 (stereo not shown)", "category-label": "1 (yes)"}
{"molecule": "CC(Nc1ccccc1C(=O)O)c1cccc2c(=O)n(C)c(C#Cc3ccccc3)cc12 (stereo not shown)", "category-label": "1 (yes)"}
{"molecule": "Cc1cc(C(C)Nc2csc3ccccc23)c2cc(-c3ccccc3)n(C)c(=O)c2c1 (stereo not shown)", "category-label": "0 (no)"}
{"molecule": "Cc1cc(C(C)Nc2ccccc2C(=O)O)c2cc(-c3cc(F)cc(F)c3)n(C)c(=O)c2c1 (stereo not shown)", "category-label": "1 (yes)"}
{"molecule": "Cc1cc([C@@H](C)Nc2ccccc2C(=O)O)c2cc(-c3ccccc3)n(C)c(=O)c2c1", "category-label": "1 (yes)"}
{"molecule": "Cc1cc(C(C)Nc2ccccc2C(=O)O)c2cc(C#Cc3cnn(-c4ccccc4)c3)n(C)c(=O)c2c1 (stereo not shown)", "category-label": "1 (yes)"}
{"molecule": "Cc1cc(C(C)Nc2ccccc2C(=O)O)c2cc(-c3ccc(F)c(F)c3)n(C)c(=O)c2c1 (stereo not shown)", "category-label": "1 (yes)"}
{"molecule": "Cc1cc(C(C)Nc2ccccc2C(=O)O)c2cc(-c3ccccc3)[nH]c(=O)c2c1 (stereo not shown)", "category-label": "1 (yes)"}
{"molecule": "Cc1cc(C(C)Nc2ccccc2C(=O)O)c2cc(C#Cc3ccccc3)n(C)c(=O)c2c1 (stereo not shown)", "category-label": "1 (yes)"}
{"molecule": "Cc1cc(C(C)Nc2ccccc2C(=O)O)c2cc(-c3cccc(F)c3)n(C)c(=O)c2c1 (stereo not shown)", "category-label": "1 (yes)"}
{"molecule": "Cc1cc([C@@H](C)Nc2ccccc2C(=O)O)c2cc(-c3ccc(C(C)(C)O)cc3)n(C)c(=O)c2c1", "category-label": "1 (yes)"}
{"molecule": "Cc1cc(C(C)Nc2c(C(=O)O)nn3c2CCC3)c2cc(-c3ccccc3)n(C)c(=O)c2c1 (stereo not shown)", "category-label": "1 (yes)"}
{"molecule": "CC#Cc1ccc(-c2cc3c(C(C)Nc4ccccc4C(=O)O)cc(C)cc3c(=O)n2C)cc1 (stereo not shown)", "category-label": "1 (yes)"}
{"molecule": "Cc1cc(C(C)Nc2ccccc2C(=O)O)c2cc(-c3ccc(F)cc3)n(C)c(=O)c2c1 (stereo not shown)", "category-label": "1 (yes)"}
{"molecule": "CC(Nc1ccccc1C(=O)O)c1cccn2c(=O)cc(-c3ccccc3)cc12 (stereo not shown)", "category-label": "1 (yes)"}
{"molecule": "Cc1cc(C(C)Nc2ccccc2C(=O)O)c2cc(-c3ccc(CN4CCOCC4)nc3)n(C)c(=O)c2c1 (stereo not shown)", "category-label": "0 (no)"}
{"molecule": "Cc1cc(C(C)Nc2ccccc2C(=O)O)c2cc(-c3ccc(C(F)(F)F)nc3)n(C)c(=O)c2c1 (stereo not shown)", "category-label": "1 (yes)"}
{"molecule": "Cc1cc(C(C)Nc2ccccc2C(=O)O)c2cc(-c3nc4ccccc4s3)n(C)c(=O)c2c1 (stereo not shown)", "category-label": "1 (yes)"}
{"molecule": "Cc1cc(C(C)Nc2ccccc2C(=O)O)c2cc(-c3ccc(N4CCCC4)cc3)n(C)c(=O)c2c1 (stereo not shown)", "category-label": "1 (yes)"}
{"molecule": "Cc1cc(C(C)Nc2ccccc2C(=O)O)c2cc(C3=CCN(c4ccccc4)C3)n(C)c(=O)c2c1 (stereo not shown)", "category-label": "1 (yes)"}
{"molecule": "COc1ncc(-c2cc3c(C(C)Nc4ccccc4C(=O)O)cc(C)cc3c(=O)n2C)cc1F (stereo not shown)", "category-label": "1 (yes)"}
{"molecule": "Cc1cc(C(C)Nc2ccccc2C(=O)O)c2cc(-c3cccc(F)c3F)n(C)c(=O)c2c1 (stereo not shown)", "category-label": "1 (yes)"}
{"molecule": "Cc1cc(C(C)Nc2ccccc2C(=O)O)c2cc(-c3cnn(C)c3)n(C)c(=O)c2c1 (stereo not shown)", "category-label": "1 (yes)"}
{"molecule": "Cc1cc(C(C)Nc2ccccc2C(=O)O)c2cc(-c3cccc4cn(C)nc34)n(C)c(=O)c2c1 (stereo not shown)", "category-label": "0 (no)"}
{"molecule": "Cc1cc(C(C)Nc2cnccc2C(=O)O)c2cc(-c3ccc(F)cc3)n(C)c(=O)c2c1 (stereo not shown)", "category-label": "0 (no)"}
